Listed here: items and their measured EC50.
Target: α-7 nicotinic ACh receptor ion channels expressed in mammalian HEK 293 cells (Rattus norvegicus)
Construct: expressed in transfected cells
Sequence (Q05941 23-502): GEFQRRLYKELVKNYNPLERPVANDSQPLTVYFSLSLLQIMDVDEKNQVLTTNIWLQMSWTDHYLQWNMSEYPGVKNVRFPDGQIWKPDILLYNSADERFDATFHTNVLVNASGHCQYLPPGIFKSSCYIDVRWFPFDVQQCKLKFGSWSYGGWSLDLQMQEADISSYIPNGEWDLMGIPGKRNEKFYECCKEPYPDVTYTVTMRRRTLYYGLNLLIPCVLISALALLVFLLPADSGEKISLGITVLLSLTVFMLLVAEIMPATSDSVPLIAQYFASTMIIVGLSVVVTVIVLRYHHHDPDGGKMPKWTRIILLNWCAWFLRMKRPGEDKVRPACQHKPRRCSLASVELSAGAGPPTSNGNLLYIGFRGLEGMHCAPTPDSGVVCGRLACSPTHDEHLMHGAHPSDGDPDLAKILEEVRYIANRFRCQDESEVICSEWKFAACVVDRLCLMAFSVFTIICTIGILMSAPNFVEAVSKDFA
Assay: Ca2+-sensitive, fluorescence-based assay for α-7 nicotinic acetylcholine receptor channel function (FLIPR)
Assay type: cell-based
Conditions: FLIPR α7 actvity rating (EC50, nM), activity class based on EC50, Ca2+ influx

Memo: c1cnc2sc(NC3=NCC4(CN5CCCC4C5)O3)nc2c1 (single isomer, unassigned) , reported EC50: < 100 nM

Memo: c1cnc2sc(NC3=NC[C@@]4(C[N@]5CCC[C@H]4C5)O3)nc2c1 (relative stereo) , reported EC50: 100 to 1000 nM

Memo: c1cnc2sc(NC3=NC[C@@]4(C[N@@]5CCC[C@@H]4C5)O3)nc2c1 (relative stereo) , reported EC50: < 100 nM

Memo: c1ccc2cc(NC3=NC[C@@]4(C[N@]5CCC[C@H]4C5)O3)ncc2c1 (single isomer, unassigned) , reported EC50: < 100 nM
